Measured Target: T1, biotinylated IL-22 with an N-terminal His/FLAG tag (bio.IL-22H/F) (human, UniProt Q9GZX6 34-179, biotinylated (site not stated))
T1 construct: not shown: N-terminal His/FLAG tag
T1 sequence: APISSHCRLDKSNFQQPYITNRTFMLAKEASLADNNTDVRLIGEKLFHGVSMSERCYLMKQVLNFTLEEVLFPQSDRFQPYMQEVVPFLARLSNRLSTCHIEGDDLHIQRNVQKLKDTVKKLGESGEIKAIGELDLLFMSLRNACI
Assay Remarks: DELFIA competition assay: scFv titrated against bio.IL-22H/F binding to the captured IL-22 receptor complex
pIC50: −log10 of the molar value.
Quantity Measured: pIC50

| Binder | Quantity Measured | Measurement |
| --- | --- | --- |
| GIL92 scFv (non-germlined parent) (scFv) scFv: QVQLVQSGAEVKKPGASVKVSCKASGYTFTDYYMHWVRQAPGQGLEWVGWINPYTGGAFYAQKFRGRVTMTRDTSINTAYMELSRLGSDDTAVYYCAREPEKFDFWGGDNWGRGTMVTVSSGGGGSGGGGSGGGGSAQAVLTQPSSVSGAPGQRVTISCTGSSSNIGAGYGVHWYQQLPGTAPKLLIYGNSNRPSGVPDRFSGSKSGTSASLAITGLQAEDEADYYCQSYDSSLSGYVFGTGTQLTVLSAAA | pIC50 | 7.81 |
| 087B03 scFv (non-germlined) (scFv, Optimized clone derived from GIL60) scFv: EVQLVESGGGVVRPGGSLRLSCAASGFTFDDYGMNWVRQAPGKGLEWVSGVNWNGGTRDYAASVKGRFTISRDNAKNSLYLQMNSLRAEDTALYYCARGWYSGAAWNMGYWGRGTLVTVSSGGGGSGGGGSGGGGSAQAVLTQPSSVSGSPGQSITISCTGASGDVGAYNFVSWYQQHPGKTPKLIIYDVNKRPSGVSNRFSGSKSSNTASLTISGLQAEDESDYYCSSYTSTFSVVFGGGTKVTVLGAAAH | pIC50 | 9.92 |
| 356A11 scFv (non-germlined) (scFv, Optimized clone derived from GIL92) scFv: QVQLVQSGAEVKKPGASVKVSCKASGYTFTNYYMHWVRQAPGQGLEWVGWINPYTGSAFYAQKFRGRVTMTRDTSINTAYMELSRLGSDDTAVYYCAREPEKFDSDDSDVWGRGTMVTVSGGGGSSGGGGSGGSGSAQAVLTPPSVSGAPGQRVTISCTGSSSNIGAGYGVHWYQQLPGTAPKLIIYGDSSRPSGVPDRFSGSKSGTSASLAITGLQAEDEADYYCQSYDNSLSGYVFGTGTQLTVLSA | pIC50 | 9.26 |
